system: MALME-3M melanoma; assay: NCI tumour cell line growth inhibition, 48 h
We begin with a simple list: items and their reported TGI.

compound	TGI
CCOC(=O)c1ccc(NC(NC(=O)CC)(C(F)(F)F)C(F)(F)F)cc1	> 100 µM
CSc1nc(=O)c(C#N)c(-c2ccccc2)n1C1OC(COC(C)=O)C(OC(C)=O)C(OC(C)=O)C1OC(C)=O (stereo not drawn)	> 100 µM
COc1cc(/C=C2\CCc3ccccc3C2=O)cc(OC)c1OC	32.9 µM
OCCNc1nc2c(N3CCCC3)nc(N3CCNCC3)nc2nc1NCc1ccccc1	35.9 µM
COc1cc(C2c3cc4c(cc3OC(N3CCOCC3)C2C)OCO4)cc(OC)c1OC(C)=O (stereo not drawn)	> 85.7 µM
CCCN(CCC)c1c([N+](=O)[O-])cc(C(=O)N(C)C)cc1[N+](=O)[O-]	> 100 µM
O=C1CC(c2c[nH]c3ccccc23)C(=O)N1c1ccccc1 (stereo not drawn)	> 100 µM
Cc1ccc(N(C(=O)CC(=O)N2N=C(c3ccccc3)C(N=Nc3ccc([N+](=O)[O-])cc3)C2=O)C(=O)c2ccc(Cl)cc2)cc1 (stereo not drawn)	> 100 µM
Nc1c(O)c(S(=O)(=O)O)c(O)c2c1C(=O)c1ccccc1C2=O	8.36 µM
COC1CCC(n2c([C@@H]3CCCC(=O)N3c3ccc(F)c(F)c3)nc3cc(-c4c(C)noc4C)ccc32)CC1 (stereo partly drawn)	17.7 µM
CC(C)(CN1CCCCC1)C(=O)/C=C/c1c(Cl)cccc1Cl	2.16 µM
Cc1nc(N)nc(N)c1N1CCN(Cc2ccccc2)CC1	> 69 µM
Cc1ccsc1/C=N/Nc1ccccn1	> 100 µM
O=C1CCC2CCOc3ccc(O)c1c32 (stereo not drawn)	> 100 µM
COc1ccc2c(c1)C(=O)c1c-2n(CCCCl)c(=O)c2cc(N(C)C)ccc12	> 100 µM
Oc1ccccc1C=Nc1ccccc1N=Cc1ccccc1O	> 100 µM
C/C(=N\n1c(Cc2ccccc2)n[nH]c1=O)c1ccc([N+](=O)[O-])cc1	> 100 µM
C[C@@]12CCC[C@@](C)(C(=O)O)C1CC[C@@]13CC(=O)[C@@](CO)(CCC12)C3 (stereo partly drawn)	> 100 µM
CCC(C)CC(CC)NCCN1CCN(C(CC)CC(C)CC)C1=S (stereo not drawn)	3.19 µM
O=[N+]([O-])c1ccc2c(c1)S(=O)c1ccccc1-2 (stereo not drawn)	> 100 µM
O=C(/C=C/c1ccc(Cl)cc1)c1ccncc1	> 100 µM
OC1(c2ccc(Cl)cc2)c2ccccc2C2=NCc3ccccc3CN21 (stereo not drawn)	27.1 µM
CC12CCC(C1)C(C)(C)C2OC(=O)c1ccccc1C(=O)O (stereo not drawn)	> 100 µM
CCCN1C(=O)/C(=C(/O)C(=O)OCC)C(c2ccc(OC)c(OC)c2)C1=O (stereo not drawn)	> 100 µM
O=[N+]([O-])c1cc(Cl)ccc1S(=O)(=O)c1cc(Cl)cc2c1NCCC2	> 100 µM
S=C1CSc2c(cnc3ccccc23)N1	> 100 µM
O=C1c2ccccc2C2(O)Oc3cccc(O)c3C12O (stereo not drawn)	> 100 µM
COC1=CCC2=C(CCN(C(=O)C3CCC3)C2Cc2ccc(OC)c(O)c2)C1 (stereo not drawn)	> 100 µM
C=CCNC(=S)OCCCCCCCCCC	33.8 µM
O=C1C=C(NCCc2cc(Br)c(O)c(Br)c2)C(=O)c2[nH]cnc21	30 µM
COc1c(Cl)c(Cl)c(OC)c2c1C(=O)C=CC2=O	29.5 µM
CCOC(=O)C1=CN(C(=O)c2ccccc2)CCC1Cc1ccccc1 (stereo not drawn)	68 µM
O=C1CCC(=O)C12CCc1cccc(O)c12	> 100 µM
CN(/N=C/c1ccc(Cl)c(Cl)c1)C1=NCCN1	36.9 µM
O=c1c2cccnc2ncn1CCCN1CCOCC1	> 100 µM
O=C1C(=O)c2c(nc3ncccn23)-c2ccccc21	0.307 µM
Cc1ccc(NC(=O)CC(=O)N2N=C(c3ccccc3)C(N=Nc3ccc(S(=O)(=O)CCOS(=O)(=O)O)cc3)C2=O)cc1 (stereo not drawn)	> 100 µM
C=CCC(C)(C(=O)NCCC)C(=O)c1ccccc1O (stereo not drawn)	> 100 µM
O=C(CCC(=O)OCC1OC(O)(CC2OC(CO)C(O)C(O)C2O)C(O)C1O)OCc1ccccc1 (stereo not drawn)	> 100 µM
COc1ccc(/C=C/C(C(=O)O)C(=O)O)cc1	> 100 µM
CC12CCC(O)CC1CCC1C2CCC2(C)C(C3=CC(=O)OC3)CCC12 (stereo not drawn)	> 90.1 µM
CN(Cc1ccccc1)C1(N(C)Cc2ccccc2)CC1	> 100 µM
COc1ccc(C(=O)N/N=C/c2ccc(O)cc2O)cc1Nc1ccnc(C(F)(F)F)c1	> 26.7 µM

* * *

system: HOP-62 NSCLC; assay: NCI tumour cell line growth inhibition, 48 h; in the data active = GI50 below about 0.43 µM; inactive = the rest
Possible outcomes: TRUE = active, FALSE = inactive

compound	cat
Cc1[nH]nc(C(=O)Nc2n[nH]c3ccccc23)c1[N+](=O)[O-]	FALSE
COC1CCC(n2c([C@@H]3CCCC(=O)N3c3ccc(F)c(F)c3)nc3cc(-c4c(C)noc4C)ccc32)CC1 (some centres undefined)	FALSE
COc1cccc(C2C(C#N)=C(N)Oc3cc(OC)ccc32)c1 (centres undefined)	TRUE
c1ccc2c(c1)ccc1c3ccccc3ccc21	FALSE
CC12CCC(O)CC1CCC1C2CCC2(C)C(C3=CC(=O)OC3)CCC12 (centres undefined)	FALSE
COC(=O)[C@]12CC[C@@H](C)[C@H](C)[C@@H]1C1=CC[C@@H]3[C@@]4(C)C=C(O)C(=O)C(C)=C4CC[C@@]3(C)[C@]1(C)CC2	FALSE
Cc1ccccc1NC(=O)c1sc2nc3c(cc2c1N)C(=O)CCC3	FALSE
C=C1C(=O)O[C@H]2[C@H]1CC(=O)/C(C)=C\CC[C@@]1(C)O[C@@H]21	FALSE
COc1cc2c3c(n(C)c(=O)c2cc1OC)-c1cc2c(cc1/C3=C\[C@@H](N)CCCCN)OCO2	FALSE

* * *

test system: PC-3 prostate; assay: NCI tumour cell line growth inhibition, 48 h
Below, each entry is listed with its recorded GI50.
experimental.endpoint: GI50

molecule	experimental.endpoint	obs.value
CC(C)(C)n1cc(-c2ccnc(NCCNS(=O)(=O)c3cccc4ccccc34)c2)c(-c2cccc(F)c2)n1	GI50	4.71 µM
C[C@@]12CCC[C@@](C)(C(=O)O)C1CC[C@@]13CC(=O)[C@@](CO)(CCC12)C3 (stereo partly specified)	GI50	> 100 µM
O=C1C(=O)c2c(nc3ncccn23)-c2ccccc21	GI50	0.32 µM
NCC(=O)CCC(=O)O	GI50	> 100 µM
Nc1c(O)c(S(=O)(=O)O)c(O)c2c1C(=O)c1ccccc1C2=O	GI50	2.32 µM
CC(C)(C)c1nnc2n(c1=O)N=CC(c1ccc(Br)cc1)S2 (stereo unspecified)	GI50	42.1 µM
CCCCC#Cc1cccc(=O)o1	GI50	25.7 µM
CCC(C)CC(CC)NCCN1CCN(C(CC)CC(C)CC)C1=S (stereo unspecified)	GI50	2.05 µM
C=CCNc1cccc2c1C(=O)c1ccccc1C2(O)CC=C (stereo unspecified)	GI50	26.6 µM
COc1cc2c3c(n(C)c(=O)c2cc1OC)-c1cc2c(cc1/C3=C\[C@@H](N)CCCCN)OCO2	GI50	2.71 µM
Nc1nc(Nc2ccc3c(c2)CCC(N2CCCC2)CC3)nn1-c1cc2c(nn1)-c1ccccc1CCC2 (stereo unspecified)	GI50	0.629 µM

* * *

Reported TGI values for a set of compounds
tested on: COLO 205 colon; assay: NCI tumour cell line growth inhibition, 48 h
experimental.endpoint: TGI

compound	experimental.endpoint	obs.value
COc1ccc(C(=O)N/N=C/c2ccc(O)cc2O)cc1Nc1ccnc(C(F)(F)F)c1	TGI	14.3 µM
Cc1nc2ccc(NCCN(C)C)c3c(=O)c4cc(O)ccc4n1c23	TGI	2.3 µM
COc1cc([C@@H]2c3cc4c(cc3[C@@H](Nc3ccc(NC(=O)c5cc(NC(=O)c6cc([N+](=O)[O-])cn6C)cn5C)cc3)[C@H]3COC(=O)[C@H]23)OCO4)cc(OC)c1O	TGI	17.8 µM
C=C(C(=O)OC)[C@@H]1C[C@@H](O)[C@]2(C)CC/C=C(\C)CCC[C@H](C)[C@H](O)C1O2	TGI	> 100 µM
Oc1ccccc1C=Nc1ccccc1N=Cc1ccccc1O	TGI	> 100 µM
O=[N+]([O-])c1ccc(-[n+]2ccc3ccccc3c2)c([N+](=O)[O-])c1	TGI	6.29 µM
C/C(=C/c1c(C)[nH]c(=O)[nH]c1=O)C(=O)O	TGI	> 1380 µM
O=C1OC(C(O)C(O)C(O)CO)C(O)C1O (stereo not drawn)	TGI	> 100 µM
CCCN(CCC)c1c([N+](=O)[O-])cc(C(=O)N(C)C)cc1[N+](=O)[O-]	TGI	> 100 µM
C1C[OH+]CC[OH+]CC[OH+]CC[OH+]CC[OH+]CC[OH+]1.[Cl-].[Ta+5]	TGI	> 100 µM
c1ccc2c(c1)ccc1c3ccccc3ccc21	TGI	> 50 µM
O=C1CCC(=O)C12CCc1cccc(O)c12	TGI	> 100 µM
COC(=O)[C@]12CC[C@@H](C)[C@H](C)[C@@H]1C1=CC[C@@H]3[C@@]4(C)C=C(O)C(=O)C(C)=C4CC[C@@]3(C)[C@]1(C)CC2	TGI	30.1 µM
CC(C)[C@@H](CS(=O)(=O)C(C)C)N1C(=O)[C@@](C)(CC(=O)O)C[C@H](c2cccc(Cl)c2)[C@H]1c1ccc(Cl)cc1	TGI	34.4 µM
CC(C)(C)C(=O)OCC(COC(=O)C(C)(C)C)[N+](=O)[O-]	TGI	> 100 µM
c1csc(-c2nnc(C34CC5CC(CC(C5)C3)C4)o2)c1	TGI	31.2 µM
O=C1NC(=S)NC(=O)C1=Cc1ccc2ccccc2n1	TGI	> 100 µM
Cc1nc2ccccc2cc1C[N+]12CN3CN(CN(C3)C1)C2	TGI	28.8 µM
CCCN1C(=O)/C(=C(/O)C(=O)OCC)C(c2ccc(OC)c(OC)c2)C1=O (stereo not drawn)	TGI	> 100 µM
O=c1cc2cc(O)[nH]c(=O)c2c(O)[nH]1	TGI	> 100 µM
COc1cccc(/C=N/n2c(Cc3ccc(Cl)cc3)n[nH]c2=O)c1	TGI	> 100 µM
Nc1ccc(-c2nc3cc(F)ccc3s2)cc1	TGI	> 100 µM
CC1=N/C(=C\c2ccc([N+](=O)[O-])cc2)C(=O)O1	TGI	> 100 µM
CC(=O)N1C(OCc2ccccc2)CCN1c1ccccc1 (stereo not drawn)	TGI	> 10 µM
COc1cc(/C=C2\CCc3ccccc3C2=O)cc(OC)c1OC	TGI	30.7 µM
C=C(COC(=O)C(C)C)[C@H]1Oc2ccc(C(C)=O)cc2[C@@H]1OC(=O)C(C)C	TGI	> 100 µM
Cc1[nH]c(=O)[nH]c(=O)c1C(=O)N(CCO)Cc1ccccc1	TGI	45.7 µM
S=C1CSc2c(cnc3ccccc23)N1	TGI	> 100 µM
COc1ccc(-c2c(C#N)c(N)nc3c2CCCc2ccc(F)cc2-3)cc1OC	TGI	> 38.1 µM
Clc1ccc(Nc2nc3ccccc3c3occc23)cc1	TGI	13 µM
CCN1CCCCC(=N\O)/C(=N/O)CCCC1	TGI	> 100 µM
CN(C)CCNC(=O)c1cccc2c1nc(-c1ccccn1)c1ccccc12	TGI	24.8 µM
O=[N+]([O-])c1cc(Cl)ccc1S(=O)(=O)c1cc(Cl)cc2c1NCCC2	TGI	> 100 µM
CN1CCN(c2c(O)c3c(c(O)c2Cl)C(=O)C=CC3=O)CC1	TGI	0.38 µM
O=C(/C=C/c1ccc(Cl)cc1)c1ccncc1	TGI	> 100 µM
CCOC(=O)CN(Cc1ccccc1)Cc1c(C(=O)c2ccccc2)c2ccccc2n1C(=O)c1ccccc1	TGI	> 100 µM
Nc1nc(Nc2ccc3c(c2)CCC(N2CCCC2)CC3)nn1-c1cc2c(nn1)-c1ccccc1CCC2 (stereo not drawn)	TGI	3.11 µM
COc1c(Cl)c(Cl)c(OC)c2c1C(=O)C=CC2=O	TGI	31.7 µM
CC1=CC(=O)/C(=C/N2CCNC2=S)C(=O)O1	TGI	> 100 µM
CCOC(=O)C1=CN(C(=O)c2ccccc2)CCC1Cc1ccccc1 (stereo not drawn)	TGI	51.9 µM
CC(C)(CN1CCCCC1)C(=O)/C=C/c1c(Cl)cccc1Cl	TGI	3.05 µM
CC(C)(C)OC(=O)N1C/C=C\C(=O)C2(OCCO2)c2ccccc21	TGI	35.7 µM
c1ccc2nn(C3CCCCO3)nc2c1 (stereo not drawn)	TGI	> 100 µM
